experiment: soluble on expression in E. coli; label from the status in PepcDB or PDB records
resultType: soluble on expression in E. coli

{"columns": ["chainSequence", "resultType", "valueObserved"],
 "data": [
  ["MASMTGGQQMGRGSGIVQQQSNLLRAIEAQQHLLQLTVWGIKQGGGGSEWEREISNYTDIIYRLIEESQNQQEKNEQELLALDKWASLWNWFDITNWLWYIQHHHHHH", "soluble on expression in E. coli", "soluble"],
  ["MIERLLEIKKIRADRADKAVQRQEYRVANVAAELQKAERSVADYHVWRQEEEERRFAKAKQQTVLLKELETLRQEIALLREREAELKQRVAEVKVTLEQERTLLKQKQQEALQAHKTKEKFVQLQQQEIAEQSRQQQYQEELEQEEFRTVDIIAAALEHHHHHH", "soluble on expression in E. coli", "soluble"]
]}
